System: Rat neutrophils
Experiment: Elastase production by fMLP stimulation (elastase release inhibition)
Assay type: cell-based
Details: Neutrophil; elastase release from cytochalasin B-primed rat neutrophils, fMLP 1 μM, 10 minutes preincubation
Recorded metric: pIC50
Quick note: pIC50 means taking -log10 of the concentration in moles per liter.

Problem: Looking for the measured pIC50 of CCCC[C@@H](O)/C=C\CCCCCCCCCCCCS(=O)(=O)[O-].[Na+] [Compound 33] , can you help?
Result: 4.82
